Source: patent US9938264B2

Molecular target: non-phosphorylated c-ABL kinase domain (Homo sapiens)
Construct: phosphorylated and non-phosphorylated c-ABL kinase domain; purchased DiscoverRx Corporation (KinomeScan platform)
Sequence (P00519 242-493 limits assumed): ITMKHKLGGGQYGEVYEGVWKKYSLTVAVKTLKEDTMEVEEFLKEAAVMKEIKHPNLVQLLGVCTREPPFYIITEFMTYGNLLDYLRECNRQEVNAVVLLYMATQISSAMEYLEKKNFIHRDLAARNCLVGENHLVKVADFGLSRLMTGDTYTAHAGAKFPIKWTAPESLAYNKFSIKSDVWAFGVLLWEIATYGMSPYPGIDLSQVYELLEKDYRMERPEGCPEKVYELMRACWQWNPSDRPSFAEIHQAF
Assay: KinomeScan in vitro binding affinity (Kd), non-phosphorylated c-ABL kinase domain
Conditions: Table 2, read-out: ABL (non-phosphorylated)
Method: PROTAC in vitro binding affinities (Kd) to phosphorylated and non-phosphorylated c-ABL kinase domain were determined using the KinomeScan platform (DiscoverRx Corporation). The compounds were solubilized in DMSO and sent to DiscoverRx Corporation as a 10 μM stock solution.
metric: Kd (nM)

See these solved cases before continuing.
compound	Kd (nM)
Cc1ccc(NC(=O)c2ccc(CN3CCN(CCCCCCOCCOCC(=O)Nc4cccc5c4C(=O)N(C4CCC(=O)NC4=O)C5=O)CC3)cc2)cc1Nc1nccc(-c2cccnc2)n1 (centres unmarked)	4.7
COc1cc(Nc2c(C#N)cnc3cc(OCCCN4CCN(CCCCCCOCCOCCOCCCCCC(=O)Nc5cccc6c5C(=O)N(C5CCC(=O)NC5=O)C6=O)CC4)c(OC)cc23)c(Cl)cc1Cl (centres unmarked)	0.91
Cc1ccc(NC(=O)c2ccc(CN3CCN(CCCCCCOCCOCC(=O)N[C@H](C(=O)N4C[C@H](O)C[C@H]4C(=O)NCc4ccc(-c5scnc5C)cc4)C(C)(C)C)CC3)cc2)cc1Nc1nccc(-c2cccnc2)n1	5.8
Cc1ccc(NC(=O)c2ccc(CN3CCN(CCCCCCOCCOCCOCCOCCOCCOCC(=O)N[C@H](C(=O)N4C[C@H](O)C[C@H]4C(=O)NCc4ccc(-c5scnc5C)cc4)C(C)(C)C)CC3)cc2)cc1Nc1nccc(-c2cccnc2)n1	1.7
Cc1nc(Nc2ncc(C(=O)Nc3c(C)cccc3Cl)s2)cc(N2CCN(CCCCCCOCCCCCOCCCCCC(=O)N[C@H](C(=O)N3C[C@H](O)C[C@H]3C(=O)NCc3ccc(-c4scnc4C)cc3)C(C)(C)C)CC2)n1	2.6
Cc1ccc(NC(=O)c2ccc(CN3CCN(CCCCCCOCCCCCOCCCCCC(=O)Nc4cccc5c4C(=O)N(C4CCC(=O)NC4=O)C5=O)CC3)cc2)cc1Nc1nccc(-c2cccnc2)n1 (centres unmarked)	24
COc1cc(Nc2c(C#N)cnc3cc(OCCCN4CCN(CCCCCCOCCCCCOCCCCCC(=O)N[C@H](C(=O)N5C[C@H](O)C[C@H]5C(=O)NCc5ccc(-c6scnc6C)cc5)C(C)(C)C)CC4)c(OC)cc23)c(Cl)cc1Cl	4.6
Cc1nc(Nc2ncc(C(=O)Nc3c(C)cccc3Cl)s2)cc(N2CCN(CCCCCCOCCOCCOCCCCCC(=O)Nc3cccc4c3C(=O)N(C3CCC(=O)NC3=O)C4=O)CC2)n1 (centres unmarked)	0.6
Cc1ccc(NC(=O)c2ccc(CN3CCN(CCCCCCOCCCCCOCCCCCC(=O)N[C@H](C(=O)N4C[C@H](O)C[C@H]4C(=O)NCc4ccc(-c5scnc5C)cc4)C(C)(C)C)CC3)cc2)cc1Nc1nccc(-c2cccnc2)n1	19
Cc1nc(Nc2ncc(C(=O)Nc3c(C)cccc3Cl)s2)cc(N2CCN(CCCCCCOCCOCC(=O)Nc3cccc4c3C(=O)N(C3CCC(=O)NC3=O)C4=O)CC2)n1 (centres unmarked)	0.28

(I) Cc1ccc(NC(=O)c2ccc(CN3CCN(CCCCCCOCCOCCOCCOCCOCCOCC(=O)Nc4cccc5c4C(=O)N(C4CCC(=O)NC4=O)C5=O)CC3)cc2)cc1Nc1nccc(-c2cccnc2)n1 (centres unmarked)
(II) Cc1nc(Nc2ncc(C(=O)Nc3c(C)cccc3Cl)s2)cc(N2CCN(CCCCCCOCCOCCOCCCCCC(=O)N[C@H](C(=O)N3C[C@H](O)C[C@H]3C(=O)NCc3ccc(-c4scnc4C)cc3)C(C)(C)C)CC2)n1
*Q* // which entry has the larger Kd value, I or II ? Answer format: the label of the selected item.
*A* I

(A) COc1cc(Nc2c(C#N)cnc3cc(OCCCN4CCN(CCCCCCOCCCCCOCCCCCC(=O)Nc5cccc6c5C(=O)N(C5CCC(=O)NC5=O)C6=O)CC4)c(OC)cc23)c(Cl)cc1Cl (centres unmarked)
(B) Cc1nc(Nc2ncc(C(=O)Nc3c(C)cccc3Cl)s2)cc(N2CCN(CCCCCCOCCCCCOCCCCCC(=O)Nc3cccc4c3C(=O)N(C3CCC(=O)NC3=O)C4=O)CC2)n1 (centres unmarked)
*Q* Kindly compare A with B and tell me which has the lower Kd figure. Answer format: the label of the selected item.
*A* B
(B: 1.3 nM, A: 2.8 nM)
